// provenance: paper PMC10700347

Test system: human keratinocyte (HaCaT) cell line
experimental-protocol: MTT cell viability on normal cell line HaCaT
Assay type: cell-based
measurement-parameters: Homo sapiens, 24 h, read-out: IC50 ± S.D. HaCaT
Please respond with reported pIC50 for every item in the list.
Interpret pIC50 as the negative base-10 log of the concentration measured in mol/L.

Sample CC=C(C)C(=O)OCC1c2c(c(O)c(C)c3c2OCO3)CC2C3C4=C(CC(C(C#N)N12)N3C)C(=O)C(C)=C(OC)C4=O (stereo not drawn) ; pIC50 observed: 7.05

Sample C/C=C(/C)C(=O)OC[C@H]1c2c(c(OC(=O)c3cnc4ccccc4c3)c(C)c3c2OCO3)C[C@H]2[C@H]3C4=C(C[C@@H]([C@H](C#N)N12)N3C)C(=O)C(C)=C(OC)C4=O ; pIC50 observed: 6.96

Sample C/C=C(/C)C(=O)OC[C@H]1c2c(c(OC(=O)c3c[nH]c4ccccc34)c(C)c3c2OCO3)C[C@H]2[C@H]3C4=C(C[C@@H]([C@H](C#N)N12)N3C)C(=O)C(C)=C(OC)C4=O ; pIC50 observed: 6.96

Sample C/C=C(/C)C(=O)OC[C@H]1c2c(c(OC(=O)[C@H](Cc3ccccc3)NC(=O)OC(C)(C)C)c(C)c3c2OCO3)C[C@H]2[C@H]3C4=C(C[C@@H]([C@H](C#N)N12)N3C)C(=O)C(C)=C(OC)C4=O ; pIC50 observed: 7.21

Sample C/C=C(/C)C(=O)OC[C@H]1c2c(c(OC(=O)[C@H](C)NC(=O)OC(C)(C)C)c(C)c3c2OCO3)C[C@H]2[C@H]3C4=C(C[C@@H]([C@H](C#N)N12)N3C)C(=O)C(C)=C(OC)C4=O ; pIC50 observed: 7.23

Sample C/C=C(/C)C(=O)OC[C@H]1c2c(c(OC(=O)c3ccco3)c(C)c3c2OCO3)C[C@H]2[C@H]3C4=C(C[C@@H]([C@H](C#N)N12)N3C)C(=O)C(C)=C(OC)C4=O ; pIC50 observed: 7.38

Sample C/C=C(/C)C(=O)OC[C@H]1c2c(c(OC(=O)c3ccc[nH]3)c(C)c3c2OCO3)C[C@H]2[C@H]3C4=C(C[C@@H]([C@H](C#N)N12)N3C)C(=O)C(C)=C(OC)C4=O ; pIC50 observed: 7.19

Sample C/C=C(/C)C(=O)OC[C@H]1c2c(c(OC(=O)c3ccncc3)c(C)c3c2OCO3)C[C@H]2[C@H]3C4=C(C[C@@H]([C@H](C#N)N12)N3C)C(=O)C(C)=C(OC)C4=O ; pIC50 observed: 7.27

Sample C/C=C(/C)C(=O)OC[C@H]1c2c(c(OC(=O)c3cccs3)c(C)c3c2OCO3)C[C@H]2[C@H]3C4=C(C[C@@H]([C@H](C#N)N12)N3C)C(=O)C(C)=C(OC)C4=O ; pIC50 observed: 6.86
